Test system: STAPHYLOCOCCUS AUREUS CMX 642A
PROTOCOL_DETAILS: In vitro antibacterial activity, MIC, BHI agar dilution
Format: cell-based
SETTINGS: S. aureus CMX 642A, unit assumed
READOUT: MIC (µg/mL)
Give the quantity in µg/mL, number only.

Q: Note down MIC recorded for CC[C@H]1OC(=O)[C@H](C)C(=O)[C@H](C)[C@@H](O[C@@H]2O[C@H](C)C[C@H](N(C)C)[C@H]2O)[C@](C)(OC)C[C@@H](C)C2=N[C@@H](COCc3ccncc3)CN3C(=O)O[C@@]1(C)[C@H]3[C@H]2C
A: 0.39

Q: Write down MIC measured for item CC[C@H]1OC(=O)[C@H](C)C(=O)[C@H](C)[C@@H](O[C@@H]2O[C@H](C)C[C@H](N(C)C)[C@H]2O)[C@](C)(OC)C[C@@H](C)C2=N[C@H](COCc3ccc(OC)cc3)CN3C(=O)O[C@@]1(C)[C@H]3[C@H]2C
A: 0.39

Q: Query MIC for CC[C@H]1OC(=O)[C@H](C)C(=O)[C@H](C)[C@@H](O[C@@H]2O[C@H](C)C[C@H](N(C)C)[C@H]2O)[C@](C)(OC)C[C@@H](C)C2=N[C@H](COCc3ccccc3F)CN3C(=O)O[C@@]1(C)[C@H]3[C@H]2C
A: 0.2

src = patent US6274715A
